Origin of the recorded values: patent US20120225062A1

Recorded below: IC50, system Pim 3 (Homo sapiens).
MEASUREMENT KIND: IC50 (pM)

For orientation, consider the following solved cases.
| COMPOUND | TESTED TARGET | UNIT | IC50 |
| --- | --- | --- | --- |
| C[C@H]1CN(c2ccncc2NC(=O)c2ccc(F)c(-c3c(F)cc(C4(O)CC4)cc3F)n2)C[C@@H](N)[C@@H]1O [Example 103] | Pim 3 (Homo sapiens) | pM | 370 |
| COc1cc(F)c(-c2nc(C(=O)Nc3cnccc3N3C[C@@H](N)[C@H](O)[C@@H](C)C3)ccc2F)c(F)c1 [Example 15] | Pim 3 (Homo sapiens) | pM | 350 |
| C[C@H]1C[C@@H](c2ccncc2NC(=O)c2ccc(F)c(-c3c(F)cc(OC4CCOCC4)cc3F)n2)C[C@@H](N)[C@H]1O [Example 140] | Pim 3 (Homo sapiens) | pM | 1710 |
| CSc1cc(F)c(-c2nc(C(=O)Nc3cnccc3N3C[C@@H](N)[C@H](O)[C@@H](C)C3)ccc2F)c(F)c1 [Example 23] | Pim 3 (Homo sapiens) | pM | 320 |
| C[C@H]1C[C@@H](c2ccncc2NC(=O)c2cccc(-c3c(F)cc(N4CCOCC4)cc3F)n2)C[C@@H](N)[C@@H]1O [Example 191] | Pim 3 (Homo sapiens) | pM | 520 |

(P) COC1(c2cc(F)c(-c3nc(C(=O)Nc4cnccc4[C@@H]4C[C@H](C)C[C@H](N)C4)ccc3F)c(F)c2)COC1 [Example 53]
(Q) C[C@@H]1C[C@H](N)C[C@H](c2ccncc2NC(=O)c2ccc(F)c(-c3c(F)cc(OCC(=O)N(C)C)cc3F)n2)C1 [Example 143]
(R) C[C@H]1CN(c2ccncc2NC(=O)c2ccc(F)c(-c3c(F)cc(S(C)(=O)=O)cc3F)n2)C[C@@H](N)[C@@H]1O [Example 16]
(S) COCCOc1cc(F)c(-c2nc(C(=O)Nc3cnccc3[C@H]3C[C@@H](N)[C@H](O)[C@@H](C)C3)c(N)cc2F)c(F)c1 [Example 120]
(T) C[C@H]1C[C@@H](c2ccncc2NC(=O)c2ccc(F)c(-c3c(F)cc(OC4CCOC4)cc3F)n2)C[C@@H](N)[C@@H]1O (stereo in doubt) [Example 70]
Query: Ascending by IC50, please. // ordering of labels required in reply
Reply: S, Q, T, R, P
(S: 510 pM, Q: 770 pM, T: 1150 pM, R: 2660 pM, P: 4050 pM)
